# Lookup of reported IC50 keyed by entry
System under test: Recombinant human BRD4 containing dual bromodomains (BRD4-BD12 (1-477)) (Homo sapiens)
Construct: Recombinant human BRD4 containing dual bromodomains (BRD4-BD12 (1-477))
Assay text: BRD4 Alphascreen binding assay

Past entries and their recorded results:
>>> result("Cc1noc(C)c1-c1cnc2c(c1)c(-c1ccc(C(=O)O)cc1OC(F)(F)F)cn2-c1ccncc1F")
"1 to 8 µM"
>>> result("Cc1noc(C)c1-c1cnc2c(c1)c(-c1c(F)cc(C(=O)O)cc1OC1CCC1)cn2C1CCOCC1")
"8 to 1000 µM"
>>> result("Cc1noc(C)c1-c1cnc2c(c1)c(-c1ccc(C(=O)O)cc1)cn2C(c1ccccn1)C1CCCC1 (centres unmarked)")
"0.0001 to 1 µM"
>>> result("Cc1noc(C)c1-c1cnc2c(c1)c(-c1c(Cl)cc(C(=O)O)cc1OC1CCC1)cn2C(C1CC1)C1CC1")
"1 to 8 µM"
>>> result("Cc1noc(C)c1-c1cnc2c(c1)c(-c1ccc3c(c1)CNC3=O)cn2C(c1ccccn1)C1CCCC1 (centres unmarked)")
"1 to 8 µM"

Fill in: IC50 of `Cc1noc(C)c1-c1cnc2c(c1)c(-c1ccnc(C(=O)O)c1)cn2Cc1ccccn1` is ___
0.0001 to 1 µM

IC50 for `CCOc1nc(C(=O)O)cc(C)c1-c1cn(C2CCOCC2)c2ncc(-c3c(C)noc3C)cc12` ?
8 to 1000 µM

Look up IC50: `Cc1noc(C)c1-c1cnc2c(c1)c(-c1ccc(C(=O)O)cc1OC(C)C)cn2-c1ncccc1C#N`
8 to 1000 µM

IC50 lookup needed for `COc1ccncc1-n1cc(-c2ccc(C(=O)O)cc2OC(F)(F)F)c2cc(-c3c(C)noc3C)cnc21` , thanks.
1 to 8 µM

Value lookup for IC50; key = `Cc1noc(C)c1-c1cnc2c(C(=O)C3CC3)c(O)n(-c3ccnc(C(=O)O)c3)c2c1`
0.0001 to 1 µM

Given `CCOc1cc(C(=O)O)cc(OCC)c1-n1cc(-c2cn(C(C)C)nc2C)c2ncc(-c3c(C)noc3C)cc21` , state its recorded IC50.
1 to 8 µM
